Known Potency of a selection of compounds
# assayDetails: Total Fluorescence Confirmation Counterscreen for Inhibitors of the Interaction of Thyroid Hormone Receptor and Steroid Receptor Coregulator 2, Fluorescein Fluoroprobe
# condition: TRbeta/SRC2-fluorescein mix, total fluorescence interference; series mostly up to 92.2 µM
Records with an inconclusive call do not appear. Active and inactive are the calls of the source. Calls come from the whole dose curve; as a rule, active = well fitted curve in the direction sought with a large enough effect; inconclusive = small, poorly fitted or top-dose-only effect, or effect the other way; inactive = flat fitted curve, though single readings scatter.

Quick one: Potency of COc1ccccc1Nc1cc2ccccc2c(=O)[nH]1 ?
44.7 µM [fluorescent] (active)

Quick one: Potency of Nc1cc(-c2ccccc2)c[nH]c1=O ?
39.8 µM [fluorescent] (active)

Quick one: Potency of O=c1[nH]c(Nc2ccccc2)cc2ccccc12 ?
35.5 µM [fluorescent] (active)

Quick one: Potency of CN1CCc2ccc3c4c2[C@]1(C)Cc1cccc(c1-4)OCO3 ?
100 µM [fluorescent] (active)

Quick one: Potency of Cc1nc2ccccc2n2c(O)c(CC(=O)O)cc12 ?
12.6 µM [fluorescent] (active)
